- System: Plasmodium falciparum
- Protocol text: Antiplasmodial activity against Plasmodium falciparum 3D7
- Assay type: functional, organism-based
# if measured IC50 < 6 µg/mL: Met  # else: Not met

Example entries and their recorded answers appear below.
C=CCOc1ccc(/C=C/C(C=C)c2ccc(OC)cc2OC)cc1 (stereo not drawn): Not met
C=CC(/C=C/c1ccc(OC)cc1OC)c1ccc(Cl)cc1Cl (stereo not drawn): Not met
CCC(/C=C/c1ccc(Cl)cc1Cl)c1ccc(OC)cc1OC (stereo not drawn): Met
CCC(/C=C/c1ccccc1Br)c1ccc(OC)cc1OC (stereo not drawn): Met

Continue with the next molecule.
Task: Identify whether the molecule C=CC(/C=C/c1ccc(F)cc1F)c1ccc(OC)cc1OC (stereo not drawn) records IC50 below 6 µg/mL.
Result: Not met
